# test.system: T1, monkey 4-1BB on CHOK1 cells (monkey)
# T1 construct: whole, on cells; also called CHOK1-c4-1BB
# test.method.notes: FACS, CHOK1-c4-1BB cells; Ab 0.08 ug/ml
measurement.kind: average fluorescence intensity (MFI)

binder: 15G10D4 (antibody, V domains shown) VH: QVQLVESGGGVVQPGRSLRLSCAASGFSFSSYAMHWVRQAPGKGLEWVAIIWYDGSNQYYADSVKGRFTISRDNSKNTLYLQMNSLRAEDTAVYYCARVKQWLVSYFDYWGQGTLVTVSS VL: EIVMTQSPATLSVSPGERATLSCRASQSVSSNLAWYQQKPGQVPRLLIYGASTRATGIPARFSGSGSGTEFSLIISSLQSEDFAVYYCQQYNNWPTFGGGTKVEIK
measurement.kind: average fluorescence intensity
measurement.unit: MFI
assay.value: 156
//
binder: 119B6G5 (antibody, V domains shown) VH: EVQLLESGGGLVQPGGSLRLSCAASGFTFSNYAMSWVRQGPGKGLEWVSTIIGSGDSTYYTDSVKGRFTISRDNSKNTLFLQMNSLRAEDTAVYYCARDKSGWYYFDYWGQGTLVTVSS VL: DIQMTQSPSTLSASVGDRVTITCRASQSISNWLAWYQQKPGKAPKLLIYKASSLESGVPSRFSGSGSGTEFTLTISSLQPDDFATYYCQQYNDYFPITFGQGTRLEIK
measurement.kind: average fluorescence intensity
measurement.unit: MFI
assay.value: 303
//
binder: 170D7F2 (antibody, V domains shown) VH: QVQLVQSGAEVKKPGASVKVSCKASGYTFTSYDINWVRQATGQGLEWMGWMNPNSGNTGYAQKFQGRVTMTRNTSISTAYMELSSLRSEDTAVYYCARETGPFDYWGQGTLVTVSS VL: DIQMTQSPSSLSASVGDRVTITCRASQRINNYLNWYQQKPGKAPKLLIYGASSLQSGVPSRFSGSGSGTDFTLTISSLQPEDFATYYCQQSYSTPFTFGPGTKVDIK
measurement.kind: average fluorescence intensity
measurement.unit: MFI
assay.value: 96.3
//
binder: 100F3C4 (antibody, V domains shown) VH: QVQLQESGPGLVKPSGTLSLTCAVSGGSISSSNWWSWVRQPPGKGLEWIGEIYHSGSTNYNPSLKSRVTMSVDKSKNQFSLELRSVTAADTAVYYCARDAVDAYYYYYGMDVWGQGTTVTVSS VL: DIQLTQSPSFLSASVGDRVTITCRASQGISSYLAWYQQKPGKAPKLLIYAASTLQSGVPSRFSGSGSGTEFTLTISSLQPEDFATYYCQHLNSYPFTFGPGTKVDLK
measurement.kind: average fluorescence intensity
measurement.unit: MFI
assay.value: 51.1
//
binder: 118F3A2 (antibody, V domains shown) VH: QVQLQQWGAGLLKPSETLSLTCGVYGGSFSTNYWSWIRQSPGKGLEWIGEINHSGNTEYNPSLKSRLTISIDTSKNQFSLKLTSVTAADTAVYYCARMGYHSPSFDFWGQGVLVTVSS VL: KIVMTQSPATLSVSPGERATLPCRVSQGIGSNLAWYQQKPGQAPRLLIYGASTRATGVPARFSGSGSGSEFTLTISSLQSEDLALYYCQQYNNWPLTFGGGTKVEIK
measurement.kind: average fluorescence intensity
measurement.unit: MFI
assay.value: 114
//
binder: 52F4G2 (antibody, V domains shown) VH: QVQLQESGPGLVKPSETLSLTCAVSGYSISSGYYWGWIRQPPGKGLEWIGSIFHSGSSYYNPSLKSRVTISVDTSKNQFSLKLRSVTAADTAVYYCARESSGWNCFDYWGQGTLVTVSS VL: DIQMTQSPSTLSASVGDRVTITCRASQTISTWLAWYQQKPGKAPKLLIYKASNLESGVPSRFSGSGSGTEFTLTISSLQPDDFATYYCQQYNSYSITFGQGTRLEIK
measurement.kind: average fluorescence intensity
measurement.unit: MFI
assay.value: 130
//
binder: 57B3D10 (antibody, V domains shown, also called 4-1BB fully human antibody 57B3D10) VH: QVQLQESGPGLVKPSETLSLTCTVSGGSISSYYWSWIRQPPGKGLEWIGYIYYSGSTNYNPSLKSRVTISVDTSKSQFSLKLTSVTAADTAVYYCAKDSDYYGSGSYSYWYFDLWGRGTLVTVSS VL: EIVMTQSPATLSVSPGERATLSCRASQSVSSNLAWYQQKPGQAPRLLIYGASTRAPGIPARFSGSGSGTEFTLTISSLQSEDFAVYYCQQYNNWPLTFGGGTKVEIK
measurement.kind: average fluorescence intensity
measurement.unit: MFI
assay.value: 166
//
binder: 113F6C6 (antibody, V domains shown, also called 4-1BB fully human antibody 113F6C6; 113F6F6) VH: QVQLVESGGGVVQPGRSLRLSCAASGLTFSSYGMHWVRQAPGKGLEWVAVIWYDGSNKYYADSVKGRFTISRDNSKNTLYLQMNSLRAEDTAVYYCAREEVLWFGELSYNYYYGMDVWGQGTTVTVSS VL: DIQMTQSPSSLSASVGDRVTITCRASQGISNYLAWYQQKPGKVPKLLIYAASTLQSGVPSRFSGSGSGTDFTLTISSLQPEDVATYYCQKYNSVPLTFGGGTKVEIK
measurement.kind: average fluorescence intensity
measurement.unit: MFI
assay.value: 182
//
binder: 172E3E3 (antibody, V domains shown) VH: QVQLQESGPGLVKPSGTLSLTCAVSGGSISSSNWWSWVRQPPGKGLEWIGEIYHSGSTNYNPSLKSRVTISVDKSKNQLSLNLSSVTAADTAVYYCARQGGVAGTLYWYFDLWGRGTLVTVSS VL: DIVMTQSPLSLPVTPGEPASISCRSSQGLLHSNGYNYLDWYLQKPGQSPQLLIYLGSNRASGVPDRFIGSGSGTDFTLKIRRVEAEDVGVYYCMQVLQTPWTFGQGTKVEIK
measurement.kind: average fluorescence intensity
measurement.unit: MFI
assay.value: 47
//
binder: 11H10C9 (antibody, V domains shown) VH: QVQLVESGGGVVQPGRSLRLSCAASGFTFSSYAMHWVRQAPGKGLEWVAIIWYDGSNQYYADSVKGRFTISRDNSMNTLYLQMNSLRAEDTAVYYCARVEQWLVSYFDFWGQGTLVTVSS VL: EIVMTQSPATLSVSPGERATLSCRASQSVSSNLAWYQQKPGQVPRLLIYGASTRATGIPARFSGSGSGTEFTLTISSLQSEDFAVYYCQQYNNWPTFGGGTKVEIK
measurement.kind: average fluorescence intensity
measurement.unit: MFI
assay.value: 82.6

Entry source: patent US20200347144A1
